# SUBJECT_OF_TEST: Recombinant KLK2 (Homo sapiens)
# Construct: made in house; host or cells: baculovirus-insect cell line system
# Sequence (P20151 25-261): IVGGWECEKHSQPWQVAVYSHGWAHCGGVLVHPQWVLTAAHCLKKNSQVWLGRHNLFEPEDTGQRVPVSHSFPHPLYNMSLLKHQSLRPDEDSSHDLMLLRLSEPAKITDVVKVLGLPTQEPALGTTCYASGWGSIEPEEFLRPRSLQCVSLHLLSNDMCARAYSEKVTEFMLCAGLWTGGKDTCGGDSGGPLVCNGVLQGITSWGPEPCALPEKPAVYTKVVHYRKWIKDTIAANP
# EXPERIMENTAL_PROTOCOL: Hydrolysis of FRET peptides by recombinant KLK2 (kinetic parameters)
# Type: biochemical
# RECORDED_CONDITIONS: pH 8.0, 20 mM Tris–HCl, 1 M sodium citrate, 37 °C, KLK2 1.6 nM; three enzymatic reactions, standard errors 5% or less
Non-standard residues stand in square brackets, D forms with d. No end group written: not given here. *: point of attachment. EDDnp = O=[N+]([O-])c1ccc(NCCN*)c([N+](=O)[O-])c1; 2Abz = Nc1ccccc1C(=O)O
Km values for the substances below.

{"columns": ["SUBSTANCE", "UNIT_OF_MEASURE", "Km"],
 "data": [
  ["Abz-KLRSXKQ-EDDnp, X = N: FRET peptide, S2’ series, X = N ([2Abz]KLRSNKQ-EDDnp)", "µM", 8.8],
  ["Abz-KXRSSKQ-EDDnp, X = A: FRET peptide, S2 series, X = A [Abz-KXRSSKQ-EDDnp, X = A] ([2Abz]KARSSKQ-EDDnp)", "µM", 4.8],
  ["Abz-KXRSSKQ-EDDnp, X = E: FRET peptide, S2 series, X = E [Abz-KXRSSKQ-EDDnp, X = E] ([2Abz]KERSSKQ-EDDnp)", "µM", 9.1]
]}

---

# SUBJECT_OF_TEST: Recombinant KLK2 (Homo sapiens)
# Construct: made in house; host or cells: baculovirus-insect cell line system
# EXPERIMENTAL_PROTOCOL: Hydrolysis of FRET peptides by recombinant KLK2 (kinetic parameters)
# Format: biochemical
# RECORDED_CONDITIONS: pH 8.0, 20 mM Tris–HCl, 1 M sodium citrate, 37 °C, KLK2 1.6 nM; three enzymatic reactions, standard errors 5% or less
Non-standard residues stand in square brackets, D forms with d. No end group written: not given here. *: point of attachment. EDDnp = O=[N+]([O-])c1ccc(NCCN*)c([N+](=O)[O-])c1; 2Abz = Nc1ccccc1C(=O)O
Hi! Could you tag entries with kcat/Km below 2000 s^–1 mM^–1 as class 1, and those at or above as class 0? Much appreciated.

{"columns": ["SUBSTANCE", "CAT"],
 "data": [
  ["Abz-KLRSXKQ-EDDnp, X = A: FRET peptide, S2’ series, X = A ([2Abz]KLRSAKQ-EDDnp)", "class 0"],
  ["Abz-KLRSXKQ-EDDnp, X = R: FRET peptide, S2’ series, X = R ([2Abz]KLRSRKQ-EDDnp)", "class 1"],
  ["Abz-KXRSSKQ-EDDnp, X = Q: FRET peptide, S2 series, X = Q [Abz-KXRSSKQ-EDDnp, X = Q] (Abz-KQRSSKQ-EDDnp)", "class 1"],
  ["Abz-KXRSSKQ-EDDnp, X = A: FRET peptide, S2 series, X = A [Abz-KXRSSKQ-EDDnp, X = A] ([2Abz]KARSSKQ-EDDnp)", "class 1"],
  ["Abz-KXRSSKQ-EDDnp, X = K: FRET peptide, S2 series, X = K (Abz-KKRSSKQ-EDDnp)", "class 1"],
  ["Abz-KXRSSKQ-EDDnp, X = Y: FRET peptide, S2 series, X = Y [Abz-KXRSSKQ-EDDnp, X = Y] (Abz-KYRSSKQ-EDDnp)", "class 0"],
  ["Abz-KLRXSKQ-EDDnp, X = F: FRET peptide, S1’ series, X = F ([2Abz]KLRFSKQ-EDDnp)", "class 0"],
  ["Abz-XLRSSKQ-EDDnp, X = H: FRET peptide, S3 series, X = H (N-terminal Abz, C-terminal EDDnp; X = H)", "class 0"],
  ["Abz-KLRSXKQ-EDDnp, X = Q: FRET peptide, S2’ series, X = Q ([2Abz]KLRSQKQ-EDDnp)", "class 1"],
  ["Abz-KXRSSKQ-EDDnp, X = V: FRET peptide, S2 series, X = V (Abz-KVRSSKQ-EDDnp)", "class 1"],
  ["Abz-KLRXSKQ-EDDnp, X = E: FRET peptide, S1’ series, X = E ([2Abz]KLRESKQ-EDDnp)", "class 1"],
  ["Abz-KLRSXKQ-EDDnp, X = I: FRET peptide, S2’ series, X = I ([2Abz]KLRSIKQ-EDDnp)", "class 1"],
  ["Abz-XLRSSKQ-EDDnp, X = R: FRET peptide, S3 series, X = R (Abz-RLRSSKQ-EDDnp)", "class 0"],
  ["Abz-KLRXSKQ-EDDnp, X = Q: FRET peptide, S1’ series, X = Q ([2Abz]KLRQSKQ-EDDnp)", "class 1"],
  ["Abz-KLRSXKQ-EDDnp, X = G: FRET peptide, S2’ series, X = G ([2Abz]KLRSGKQ-EDDnp)", "class 1"],
  ["Abz-KLRXSKQ-EDDnp, X = R: FRET peptide, S1’ series, X = R ([2Abz]KLRRSKQ-EDDnp)", "class 1"],
  ["Abz-XLRSSKQ-EDDnp, X = S: FRET peptide, S3 series, X = S (Abz-SLRSSKQ-EDDnp)", "class 0"],
  ["Abz-KXRSSKQ-EDDnp, X = H: FRET peptide, S2 series, X = H (N-terminal Abz, C-terminal EDDnp; X = H)", "class 1"],
  ["Abz-XLRSSKQ-EDDnp, X = Q: FRET peptide, S3 series, X = Q (Abz-QLRSSKQ-EDDnp)", "class 0"],
  ["Abz-KLRXSKQ-EDDnp, X = N: FRET peptide, S1’ series, X = N ([2Abz]KLRNSKQ-EDDnp)", "class 1"],
  ["Abz-KXRSSKQ-EDDnp, X = S: FRET peptide, S2 series, X = S (Abz-KSRSSKQ-EDDnp)", "class 1"],
  ["Abz-KLRSXKQ-EDDnp, X = N: FRET peptide, S2’ series, X = N ([2Abz]KLRSNKQ-EDDnp)", "class 1"],
  ["Abz-KXRSSKQ-EDDnp, X = F: FRET peptide, S2 series, X = F ([2Abz]KFRSSKQ-EDDnp)", "class 0"],
  ["Abz-XLRSSKQ-EDDnp, X = V: FRET peptide, S3 series, X = V [Abz-XLRSSKQ-EDDnp, X = V] (Abz-VLRSSKQ-EDDnp)", "class 0"],
  ["Abz-KXRSSKQ-EDDnp, X = N: FRET peptide, S2 series, X = N (Abz-KNRSSKQ-EDDnp)", "class 1"],
  ["Abz-KLRSXKQ-EDDnp, X = L: FRET peptide, S2’ series, X = L ([2Abz]KLRSLKQ-EDDnp)", "class 0"],
  ["Abz-KXRSSKQ-EDDnp, X = T: FRET peptide, S2 series, X = T (Abz-KTRSSKQ-EDDnp)", "class 1"]
]}

Origin of values: paper PMC11339918
